Target: human PKCθ full length enzyme (Homo sapiens, UniProt Q04759)
Construct: human PKCθ full length enzyme (Panvera Cat# P2996); purchased Panvera P2996
Sequence (Q04759 whole entry): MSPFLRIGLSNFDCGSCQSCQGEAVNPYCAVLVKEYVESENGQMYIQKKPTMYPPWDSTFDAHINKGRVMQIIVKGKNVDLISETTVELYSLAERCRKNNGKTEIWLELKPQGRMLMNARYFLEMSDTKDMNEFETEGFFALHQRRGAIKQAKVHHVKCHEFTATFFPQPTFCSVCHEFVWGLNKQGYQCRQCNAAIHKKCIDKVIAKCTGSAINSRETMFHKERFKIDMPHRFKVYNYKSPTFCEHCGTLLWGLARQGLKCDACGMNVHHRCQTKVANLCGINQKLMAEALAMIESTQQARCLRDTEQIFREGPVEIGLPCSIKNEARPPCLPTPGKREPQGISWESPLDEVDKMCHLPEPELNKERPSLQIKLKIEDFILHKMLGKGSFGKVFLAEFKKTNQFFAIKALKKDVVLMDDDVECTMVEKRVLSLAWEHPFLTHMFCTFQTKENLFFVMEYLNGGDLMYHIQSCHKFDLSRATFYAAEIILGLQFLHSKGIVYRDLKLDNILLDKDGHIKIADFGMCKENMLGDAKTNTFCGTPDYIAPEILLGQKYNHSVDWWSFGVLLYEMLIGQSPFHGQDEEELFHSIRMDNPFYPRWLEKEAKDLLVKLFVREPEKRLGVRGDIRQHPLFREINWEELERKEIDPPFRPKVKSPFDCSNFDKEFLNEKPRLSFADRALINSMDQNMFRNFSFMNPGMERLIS
Assay: PKCθ IMAP assay (fluorescence polarization)
Type: biochemical
Details: human PKCθ full length enzyme, IMAP; average value; read-out: IC50 PKCθ IMAP
property: IC50 (nM)
# unit: nM | format: bare number

mol.smiles: Cc1c(Nc2c(C#N)cncc2-c2ccncc2)ccc2[nH]ccc12
IC50 [nM]: 36

mol.smiles: Cc1c(Nc2c(C#N)cncc2-c2ccc(CN3CCC(N4CCCC4)CC3)o2)ccc2[nH]ccc12
IC50 [nM]: 4

mol.smiles: N#Cc1cncc(-c2cccc(-c3ccc(C(=O)NCCCO)cc3)c2)c1Nc1ccc2[nH]ccc2c1
IC50 [nM]: 2580

mol.smiles: N#Cc1cncc(-c2cc3ccccc3o2)c1Nc1cccc2[nH]ccc12
IC50 [nM]: 10

mol.smiles: Cc1c(Nc2c(C#N)cncc2-c2ccc(OCCN(C)C)cc2Cl)ccc2[nH]ccc12
IC50 [nM]: 20

mol.smiles: Cc1c(Nc2c(C#N)cncc2-c2ccc(OCCNCc3ccccc3)cc2)ccc2[nH]ccc12
IC50 [nM]: 4

mol.smiles: COCCOc1cccc(-c2cncc(C#N)c2Nc2cccc3[nH]ccc23)c1
IC50 [nM]: 30

mol.smiles: COc1cccc(-c2cncc(C#N)c2Nc2ccc3[nH]ccc3c2C)c1
IC50 [nM]: 36

Return IC50 for the following compound: COc1ccc(-c2cncc(C#N)c2Nc2cccc3[nH]ccc23)cc1OC
13

Return IC50 for the following compound: Cc1c(Nc2c(C#N)cncc2-c2ccc(NC(=O)NC3CC3)cc2)ccc2[nH]ccc12
23

Return IC50 for the following compound: CS(=O)(=O)c1cccc(-c2cncc(C#N)c2Nc2cccc3[nH]ccc23)c1
80

Return IC50 for the following compound: COc1ccc(-c2cncc(C#N)c2Nc2ccc3[nH]ccc3c2)cc1OCCN1CCN(C)CC1
250

Return IC50 for the following compound: N#Cc1cncc(-c2cc3cc(CN4CCCC4)ccc3s2)c1Nc1cccc2[nH]ccc12
4

Return IC50 for the following compound: COc1ccc(-c2cncc(C#N)c2Nc2cccc3[nH]ccc23)cc1OCCN(C)C
50

Return IC50 for the following compound: Cc1csc(-c2cccc(-c3cncc(C#N)c3Nc3ccc4[nH]ccc4c3)c2)c1
250

Return IC50 for the following compound: Cc1cc2[nH]ccc2cc1Nc1c(C#N)cncc1-c1ccc(OCCN2CCCCC2)cc1
84

Return IC50 for the following compound: COc1cc(-c2cncc(C#N)c2Nc2ccc3[nH]ccc3c2C)ccc1OCCN1CCCCC1
20

* * *

Each entry below carries its recorded log10 of IC50.
Biological target: human PKCθ full length enzyme (Homo sapiens)
Construct: human PKCθ full length enzyme (Panvera Cat# P2996); purchased Panvera P2996
Experiment: PKCθ IMAP assay (fluorescence polarization)
Type: biochemical
Conditions: human PKCθ full length enzyme, IMAP; average value; read-out: IC50 PKCθ IMAP
Values reflect log10 of reported IC50 (nM).

Example entries begin here.
mol.smiles: CC(=O)Nc1ccc(-c2cncc(C#N)c2Nc2ccc3[nH]ccc3c2C)cc1
experimental.target: human PKCθ full length enzyme (Homo sapiens)
property: log10 of IC50
quantitative.result: 1.86
--
mol.smiles: Cc1c(Nc2c(C#N)cncc2-c2ccc(OCCCN(C)C)cc2)ccc2[nH]ccc12
experimental.target: human PKCθ full length enzyme (Homo sapiens)
property: log10 of IC50
quantitative.result: 0.95
--
mol.smiles: COc1ccc(-c2cncc(C#N)c2Nc2cccc3[nH]ccc23)cc1OCCN1CCCCC1
experimental.target: human PKCθ full length enzyme (Homo sapiens)
property: log10 of IC50
quantitative.result: 1.70
--
mol.smiles: COc1ccc(-c2cncc(C#N)c2NCCN2CCN(C)CC2)cc1OC
experimental.target: human PKCθ full length enzyme (Homo sapiens)
property: log10 of IC50
quantitative.result: 3.77
--
mol.smiles: N#Cc1cncc(-c2cccc(-c3ccc(C(=O)NCCO)cc3)c2)c1Nc1ccc2[nH]ccc2c1
experimental.target: human PKCθ full length enzyme (Homo sapiens)
property: log10 of IC50
quantitative.result: 3.11
--
mol.smiles: N#Cc1cncc(-c2cc3ccccc3s2)c1Nc1cccc2[nH]ccc12
experimental.target: human PKCθ full length enzyme (Homo sapiens)
property: log10 of IC50
quantitative.result: 1.30
--
mol.smiles: Cc1c(Nc2c(C#N)cncc2-c2ccc3c(c2)sc2ccccc23)ccc2[nH]ccc12
experimental.target: human PKCθ full length enzyme (Homo sapiens)
property: log10 of IC50
quantitative.result: 2.08

Next compound, please.
Return log10 of IC50 for the following compound: Cc1c(Nc2c(C#N)cncc2-c2ccc(CN3CCN(C)CC3)o2)ccc2[nH]ccc12
0.60

* * *

Target: human PKCθ full length enzyme (Homo sapiens, UniProt Q04759)
Construct: human PKCθ full length enzyme (Panvera Cat# P2996); purchased Panvera P2996
Experiment: PKCθ IMAP assay (fluorescence polarization)
Assay type: biochemical
Conditions: human PKCθ full length enzyme, IMAP; average value; read-out: IC50 PKCθ IMAP
property: IC50 (nM)
# unit: nM | format: bare number

Example entries begin here.
mol.smiles: N#Cc1cncc(-c2cc3cc(CN4CCNCC4)ccc3s2)c1Nc1cccc2[nH]ccc12
experimental.target: human PKCθ full length enzyme (Homo sapiens, UniProt Q04759)
IC50 / nM: 20

mol.smiles: COc1ccc(-c2cncc(C#N)c2Nc2ccc3cc[nH]c3c2)cc1OC
experimental.target: human PKCθ full length enzyme (Homo sapiens, UniProt Q04759)
IC50 / nM: 450

mol.smiles: COc1ncc(-c2cncc(C#N)c2Nc2ccc3[nH]ccc3c2)cn1
experimental.target: human PKCθ full length enzyme (Homo sapiens, UniProt Q04759)
IC50 / nM: 1450

mol.smiles: N#Cc1cncc(-c2cccs2)c1Nc1ccc2[nH]ccc2c1
experimental.target: human PKCθ full length enzyme (Homo sapiens, UniProt Q04759)
IC50 / nM: 100

Next compound, please.
Return IC50 for the following compound: COc1ccc(-c2cncc(C#N)c2Nc2cccc3[nH]ccc23)cc1OCCNCCc1ccccc1
1

* * *

Target: purified recombinant full length PKC theta (Panvera, P2996) (Homo sapiens)
Construct: purified recombinant full length PKC theta (Panvera, P2996)
Sequence (Q04759 whole entry): as above
Test: Radioactive kinase assay for inhibition of full length (FL) PKCθ
Conditions: average value
property: pIC50
Scale note: pIC50 = -log10(concentration in M).

Example entries begin here.
molecule: N#Cc1cncc(-c2cccc(-c3cccc(C(=O)O)c3)c2)c1Nc1ccc2[nH]ccc2c1 [Compound 133]
property: pIC50
quantitative.result: 6.43
//
molecule: N#Cc1cncc(-c2cccc(-c3ccsc3)c2)c1Nc1ccc2[nH]ccc2c1 [Compound 141]
property: pIC50
quantitative.result: 7.05
//
molecule: N#Cc1cncc(-c2ccccc2-c2cccc(Cl)c2)c1Nc1ccc2[nH]ccc2c1 [Compound 144]
property: pIC50
quantitative.result: 6.04
//
molecule: N#Cc1cncc(-c2cccc(-c3cccnc3)c2)c1Nc1ccc2[nH]ccc2c1 [Compound 137]
property: pIC50
quantitative.result: 7.15

Next molecule, please.
Would you please give the reported pIC50 of N#Cc1cncc(-c2cccc(-c3ccncc3)c2)c1Nc1ccc2[nH]ccc2c1 [Compound 121] with purified recombinant full length PKC theta (Panvera, P2996) (Homo sapiens)?
6.77

* * *

Target: human PKCθ full length enzyme (Homo sapiens)
Construct: human PKCθ full length enzyme (Panvera Cat# P2996); purchased Panvera P2996
Assay: PKCθ IMAP assay (fluorescence polarization)
Type: biochemical
Details: human PKCθ full length enzyme, IMAP; average value; read-out: IC50 PKCθ IMAP
pIC50: −log10 of the molar value.
Threshold rule: pIC50 greater than or equal to 7 is MET; below that, NOT MET.

// known answers, use as guide
mol.smiles: Cc1c(Nc2c(C#N)cncc2-c2ccc(CN3CCOCC3)o2)ccc2[nH]ccc12
experimental.target: human PKCθ full length enzyme (Homo sapiens)
answer.label: MET
--
mol.smiles: CCN1CCN(Cc2ccc3oc(-c4cncc(C#N)c4Nc4ccc5[nH]ccc5c4C)cc3c2)CC1
experimental.target: human PKCθ full length enzyme (Homo sapiens)
answer.label: MET
--
mol.smiles: N#Cc1cncc(-c2cccc(-c3cccs3)c2)c1Nc1cccc2[nH]ccc12
experimental.target: human PKCθ full length enzyme (Homo sapiens)
answer.label: MET
--
mol.smiles: N#Cc1cncc(-c2cccc(O)c2)c1Nc1cccc2[nH]ccc12
experimental.target: human PKCθ full length enzyme (Homo sapiens)
answer.label: MET
--
mol.smiles: Cc1c(Nc2c(C#N)cncc2-c2cc3cc(CNCCCO)ccc3o2)ccc2[nH]ccc12
experimental.target: human PKCθ full length enzyme (Homo sapiens)
answer.label: MET

Would you say Cc1c(Nc2c(C#N)cncc2-c2ccc(NC(=O)C(C)C)cc2)ccc2[nH]ccc12 shows pIC50 at minimum 7?
NOT MET

Would you say COc1ccc(-c2cncc(C#N)c2Nc2ccc3[nH]ccc3c2)cc1OCCNCCCc1ccccc1 shows pIC50 at minimum 7?
MET

Would you say COc1ccc(-c2cncc(C#N)c2Nc2ccc3[nH]ccc3c2)cc1OCCNCc1ccccc1 shows pIC50 at minimum 7?
MET

Would you say Cc1c(Nc2c(C#N)cncc2-c2ccc(OCCN3CCCC3)cc2)ccc2[nH]ccc12 shows pIC50 at minimum 7?
MET

Would you say N#Cc1cncc(-c2cc3cc(CNCCCCO)ccc3s2)c1Nc1cccc2[nH]ccc12 shows pIC50 at minimum 7?
MET

Would you say COc1ccc(-c2cncc(C#N)c2Nc2ccc3[nH]ccc3c2F)cc1OC shows pIC50 at minimum 7?
MET

Would you say COc1ccc(-c2cncc(C#N)c2NCCC2CCN(C)CC2)cc1OC shows pIC50 at minimum 7?
NOT MET

Would you say N#Cc1cncc(-c2ccc(NCCN3CCOCC3)nc2)c1Nc1cccc2[nH]ccc12 shows pIC50 at minimum 7?
MET
